Reported pIC50 is given for each of the following compounds.
- experimental-target: Inhibitor of nuclear factor kappa-B kinase subunit epsilon (Homo sapiens)
- Sequence (Q14164 whole entry): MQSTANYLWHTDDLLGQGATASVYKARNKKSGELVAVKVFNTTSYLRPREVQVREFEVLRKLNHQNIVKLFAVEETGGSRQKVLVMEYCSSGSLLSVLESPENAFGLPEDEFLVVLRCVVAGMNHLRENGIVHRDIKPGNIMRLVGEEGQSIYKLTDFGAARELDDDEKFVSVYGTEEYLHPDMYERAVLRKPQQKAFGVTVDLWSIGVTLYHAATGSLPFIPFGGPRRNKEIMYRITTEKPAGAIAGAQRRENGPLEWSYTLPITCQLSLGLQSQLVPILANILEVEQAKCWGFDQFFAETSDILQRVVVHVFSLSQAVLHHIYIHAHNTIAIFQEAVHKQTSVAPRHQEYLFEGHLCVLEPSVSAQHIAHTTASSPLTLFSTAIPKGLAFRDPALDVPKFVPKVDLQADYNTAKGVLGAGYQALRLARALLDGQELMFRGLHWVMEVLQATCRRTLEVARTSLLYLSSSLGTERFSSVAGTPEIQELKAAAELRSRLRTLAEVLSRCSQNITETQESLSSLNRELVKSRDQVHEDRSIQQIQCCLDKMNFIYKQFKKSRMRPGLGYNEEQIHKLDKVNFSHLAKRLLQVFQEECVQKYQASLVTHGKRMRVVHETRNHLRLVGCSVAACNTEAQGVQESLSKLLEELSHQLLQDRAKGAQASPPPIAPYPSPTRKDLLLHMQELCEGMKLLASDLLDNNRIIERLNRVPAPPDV
- assay-notes: Inhibition of IKKE (unknown origin) after 60 mins by TR-FRET assay
pIC50: −log10 of the molar value.

{"molecule-smiles": "FC(F)(F)CNc1nc(Nc2ccc(N3CCOCC3)c(Cl)c2)nc2ccoc12", "pIC50": "< 5.00"}
{"molecule-smiles": "FC(F)(F)CNc1nc(Nc2ccc3cn[nH]c3c2)nc2ccoc12", "pIC50": "< 5.00"}
{"molecule-smiles": "CC1(C)OCC(=O)Nc2cc(Nc3nc(NCC(F)(F)F)c4occc4n3)ccc21", "pIC50": 5.46}

Switching to the query record.
The compound listed as Cc1n[nH]c2cc(Nc3nc(NC4CC4)c4occc4n3)ccc12 shows pIC50 equal to < 5.00

###

- experimental-target: Activated CDC42 kinase 1 (Homo sapiens, UniProt Q07912)
- Sequence (Q07912 whole entry): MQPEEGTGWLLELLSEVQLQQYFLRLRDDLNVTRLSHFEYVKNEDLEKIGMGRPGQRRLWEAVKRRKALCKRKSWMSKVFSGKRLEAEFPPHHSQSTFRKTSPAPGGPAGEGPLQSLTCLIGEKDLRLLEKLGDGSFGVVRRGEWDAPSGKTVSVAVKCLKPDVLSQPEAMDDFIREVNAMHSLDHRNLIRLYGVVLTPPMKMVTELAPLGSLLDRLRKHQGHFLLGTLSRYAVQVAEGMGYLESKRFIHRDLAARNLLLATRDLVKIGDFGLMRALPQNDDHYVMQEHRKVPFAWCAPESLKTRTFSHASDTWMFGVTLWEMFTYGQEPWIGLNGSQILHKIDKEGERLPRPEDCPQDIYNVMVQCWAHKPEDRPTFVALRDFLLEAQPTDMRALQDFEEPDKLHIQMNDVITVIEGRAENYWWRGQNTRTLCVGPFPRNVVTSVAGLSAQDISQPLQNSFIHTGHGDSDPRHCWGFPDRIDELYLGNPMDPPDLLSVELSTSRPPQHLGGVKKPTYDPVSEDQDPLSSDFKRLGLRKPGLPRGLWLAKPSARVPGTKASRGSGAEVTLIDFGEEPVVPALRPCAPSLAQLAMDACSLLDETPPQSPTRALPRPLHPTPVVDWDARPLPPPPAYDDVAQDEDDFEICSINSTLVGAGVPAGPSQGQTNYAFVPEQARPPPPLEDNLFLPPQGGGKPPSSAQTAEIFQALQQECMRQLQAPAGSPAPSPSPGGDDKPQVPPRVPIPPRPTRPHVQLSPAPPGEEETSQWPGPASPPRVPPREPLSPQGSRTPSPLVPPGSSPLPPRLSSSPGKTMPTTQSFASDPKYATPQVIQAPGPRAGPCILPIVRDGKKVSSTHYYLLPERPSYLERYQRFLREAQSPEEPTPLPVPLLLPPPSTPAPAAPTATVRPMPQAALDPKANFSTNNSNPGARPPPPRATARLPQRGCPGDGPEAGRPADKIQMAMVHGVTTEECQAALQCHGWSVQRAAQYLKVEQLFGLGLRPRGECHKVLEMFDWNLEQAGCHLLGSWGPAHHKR
- assay-notes: Inhibition of TNK2 (unknown origin) after 60 mins by TR-FRET assay
Reported pIC50 is given for each of the following compounds.
Recall that pIC50 is obtained by taking minus log10 of the concentration measured in molar.

The compound listed as FC(F)(F)CNc1nc(Nc2ccc3cn[nH]c3c2)nc2ccoc12 shows pIC50 equal to 5.46

The compound listed as FC(F)(F)CNc1nc(Nc2ccc(N3CCOCC3)c(Cl)c2)nc2ccoc12 shows pIC50 equal to 5.40

The compound listed as CC1(C)OCC(=O)Nc2cc(Nc3nc(NCC(F)(F)F)c4occc4n3)ccc21 shows pIC50 equal to 5.88

The compound listed as Cc1n[nH]c2cc(Nc3nc(NC4CC4)c4occc4n3)ccc12 shows pIC50 equal to 5.88

###

Let's go through some IC50 measurements on Serine/threonine-protein kinase Nek2 (Homo sapiens, UniProt P51955) together.
Sequence (P51955 whole entry): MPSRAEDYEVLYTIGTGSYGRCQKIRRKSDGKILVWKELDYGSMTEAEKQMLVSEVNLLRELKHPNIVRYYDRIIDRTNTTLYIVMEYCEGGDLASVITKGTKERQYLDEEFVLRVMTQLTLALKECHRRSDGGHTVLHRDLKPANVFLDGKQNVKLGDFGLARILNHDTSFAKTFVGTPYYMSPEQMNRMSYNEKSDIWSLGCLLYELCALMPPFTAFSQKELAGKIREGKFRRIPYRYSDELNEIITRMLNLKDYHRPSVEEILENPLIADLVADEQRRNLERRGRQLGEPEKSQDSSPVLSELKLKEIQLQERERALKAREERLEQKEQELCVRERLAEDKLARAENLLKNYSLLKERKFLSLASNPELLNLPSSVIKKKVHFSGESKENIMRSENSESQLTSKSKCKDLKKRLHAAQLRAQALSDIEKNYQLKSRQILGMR

{"molecule-smiles": "FC(F)(F)CNc1nc(Nc2ccc(N3CCOCC3)c(Cl)c2)nc2ccoc12", "IC50": "> 10 µM"}

# IC50 measured on Serine/threonine-protein kinase Nek2 (Homo sapiens, UniProt P51955) for item CC1(C)OCC(=O)Nc2cc(Nc3nc(NCC(F)(F)F)c4occc4n3)ccc21 = > 10 µM

###

- experimental-target: Serine/threonine-protein kinase D3 (Homo sapiens, UniProt O94806)
- Sequence (O94806 whole entry): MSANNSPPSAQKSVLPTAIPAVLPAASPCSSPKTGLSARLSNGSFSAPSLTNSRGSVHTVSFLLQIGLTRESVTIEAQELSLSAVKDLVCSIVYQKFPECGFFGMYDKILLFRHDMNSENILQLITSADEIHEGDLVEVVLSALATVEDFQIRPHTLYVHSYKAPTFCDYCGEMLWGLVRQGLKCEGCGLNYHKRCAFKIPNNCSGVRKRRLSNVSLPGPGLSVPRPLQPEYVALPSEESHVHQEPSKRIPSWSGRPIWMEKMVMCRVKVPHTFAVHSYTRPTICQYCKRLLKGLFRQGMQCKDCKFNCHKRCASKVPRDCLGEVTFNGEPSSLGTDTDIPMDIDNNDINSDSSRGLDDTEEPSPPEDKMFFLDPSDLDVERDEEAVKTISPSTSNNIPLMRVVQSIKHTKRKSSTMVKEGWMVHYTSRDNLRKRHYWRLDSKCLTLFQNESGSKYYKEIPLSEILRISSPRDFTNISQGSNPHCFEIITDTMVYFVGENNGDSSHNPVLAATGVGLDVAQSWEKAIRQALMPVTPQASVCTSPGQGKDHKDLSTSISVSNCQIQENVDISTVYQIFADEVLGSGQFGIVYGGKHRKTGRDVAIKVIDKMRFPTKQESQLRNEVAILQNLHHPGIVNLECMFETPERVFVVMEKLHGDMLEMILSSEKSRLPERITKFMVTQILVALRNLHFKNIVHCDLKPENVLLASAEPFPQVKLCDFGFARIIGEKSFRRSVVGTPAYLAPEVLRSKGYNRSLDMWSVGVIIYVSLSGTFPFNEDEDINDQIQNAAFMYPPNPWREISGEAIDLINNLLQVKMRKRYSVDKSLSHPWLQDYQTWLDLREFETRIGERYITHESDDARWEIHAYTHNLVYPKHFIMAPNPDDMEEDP
pIC50: −log10 of the molar value.
quantity-measured: pIC50

{"molecule-smiles": "FC(F)(F)CNc1nc(Nc2ccc(N3CCOCC3)c(Cl)c2)nc2ccoc12", "pIC50": "< 5.00"}

Switching to the query record.
The molecule listed as CC1(C)OCC(=O)Nc2cc(Nc3nc(NCC(F)(F)F)c4occc4n3)ccc21 shows pIC50 equal to < 5.00

###

- experimental-target: Tyrosine-protein kinase SYK (Homo sapiens, UniProt P43405)
Reported pIC50 is given for each of the following molecules.
Recall that pIC50 is obtained by taking minus log10 of the concentration measured in molar.

Here are 3 molecules together with their reported answers.
{"molecule-smiles": "FC(F)(F)CNc1nc(Nc2ccc(N3CCOCC3)c(Cl)c2)nc2ccoc12", "experimental-target": "Tyrosine-protein kinase SYK (Homo sapiens, UniProt P43405)", "pIC50": 7.16}
{"molecule-smiles": "CCCNC(=O)c1ccc(Nc2nc(NCC(F)(F)F)c3cc[nH]c3n2)cc1", "experimental-target": "Tyrosine-protein kinase SYK (Homo sapiens, UniProt P43405)", "pIC50": 8.10}
{"molecule-smiles": "CC1(C)OCC(=O)Nc2cc(Nc3nc(NCC(F)(F)F)c4occc4n3)ccc21", "experimental-target": "Tyrosine-protein kinase SYK (Homo sapiens, UniProt P43405)", "pIC50": 8.05}

The molecule listed as FC(F)(F)CNc1nc(Nc2ccc3cn[nH]c3c2)nc2ccoc12 shows pIC50 equal to 7.01

###

Reported CL free is given for each of the following compounds.
- assay-notes: Unbound clearance in human microsomes
- Type: ADME, Microsome
Return type: number; implicit unit mL/min/kg.

{"molecule-smiles": "CC(C)CNc1nc(Nc2ccc3c(c2)NC(=O)COC3(C)C)nc2ccoc12", "CL free, mL/min/kg": 507}
{"molecule-smiles": "COC(=O)N[C@H]1CC(C)(C)c2ccc(Nc3nc(NC4CC4)c4occc4n3)cc2NC1=O", "CL free, mL/min/kg": 118}
{"molecule-smiles": "CC1(C)OCC(=O)Nc2cc(Nc3nc(NCC(F)(F)F)c4occc4n3)ccc21", "CL free, mL/min/kg": 170}

Switching to the query record.
The compound listed as CC1(C)CCC(=O)Nc2cc(Nc3nc(NC4CC4)c4occc4n3)ccc21 shows CL free equal to 317

###

- experimental-target: CYP3A4 (Homo sapiens, UniProt P08684)
- Sequence (P08684 whole entry): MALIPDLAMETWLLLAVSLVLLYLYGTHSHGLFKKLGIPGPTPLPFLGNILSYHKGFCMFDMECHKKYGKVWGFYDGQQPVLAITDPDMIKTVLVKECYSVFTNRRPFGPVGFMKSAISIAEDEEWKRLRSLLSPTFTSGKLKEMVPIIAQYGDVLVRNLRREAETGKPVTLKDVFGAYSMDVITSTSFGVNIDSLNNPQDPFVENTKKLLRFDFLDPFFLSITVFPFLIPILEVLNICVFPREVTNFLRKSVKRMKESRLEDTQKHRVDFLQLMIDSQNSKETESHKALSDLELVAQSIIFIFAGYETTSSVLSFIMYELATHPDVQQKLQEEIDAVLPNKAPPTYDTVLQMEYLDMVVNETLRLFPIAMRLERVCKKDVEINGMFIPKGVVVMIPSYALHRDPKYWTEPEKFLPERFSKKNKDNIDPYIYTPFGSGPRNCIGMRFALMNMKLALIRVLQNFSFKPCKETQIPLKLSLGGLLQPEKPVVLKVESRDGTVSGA
- assay-notes: Inhibition of CYP3A4 in human liver microsomes assessed as residual activity at 50 uM measured after 30 mins relative to control
- Assay type: ADME
- condition-label: read-out: Activity
quantity-measured: activity at 0.5 h, 50 µM (%)
Return type: number; implicit unit %.

Here are 2 compounds together with their reported answers.
{"molecule-smiles": "CC1(C)OCC(=O)Nc2cc(Nc3nc(NC4CC4)c4occc4n3)ccc21", "activity at 0.5 h, 50 µM (%)": 14}
{"molecule-smiles": "Cc1n[nH]c2cc(Nc3nc(NC4CC4)c4occc4n3)ccc12", "activity at 0.5 h, 50 µM (%)": 28}

Switching to the query record.
The compound listed as CC1(C)OCC(=O)Nc2cc(Nc3nc(NCC(F)(F)F)c4occc4n3)ccc21 shows activity at 0.5 h, 50 µM equal to 75
